Exercise: state measured GI50 for each of the molecules provided.
system: ACHN; experiment: NCI tumour cell line growth inhibition, 48 h
Calls of active or inactive are those of the source. No stated cut-off is given here; in the data, active = GI50 up to about 1.1 µM and inactive = higher.

N=c1c2c(=S)n(-c3ccccc3)c(=S)n(-c3ccccc3)c2nc(SCCN2CCOCC2)n1-c1ccccc1 ... 1.87 µM (inactive)
CCOC(=O)C1=C(C)N(Cc2ccccc2)C(C)=C(C(=O)OCC)C1c1ccccc1O ... 28.1 µM (inactive)
O=[N+]([O-])c1ccccc1S(=O)(=O)c1ccccc1 ... > 100 µM (inactive)
COc1ccc(Nc2nc(N)c(C(=O)c3ccco3)s2)cc1 ... 47.8 µM (inactive)

Attention now turns to another entry.
(Q) So what does the record say about GI50 for CCC/C=C/C=C/C(=O)OC1C(C)C2(O)C3C=C(C)C(=O)C3CC(COC(C)=O)=CC2C2C(C)(C)C12OC(=O)C(C)C (stereo not given) ?
(A) 9.46 µM (inactive)
